Tested on: hydantoinase
PROTOCOL NOTES: Substrate specificity of purified recombinant hydantoinase
Format: biochemical, Ochrobactrum anthropi
TEST CONTEXT: purified recombinant enzyme from E. coli BL21, compound as substrate
Entries and their measured Specific activity follow.
RECORDED METRIC: Specific activity (IU/mg)

• O=C(O)CC1NC(=O)NC1=O (centres unmarked) = 1.8
• O=c1cc[nH]c(=O)[nH]1 = 1.8
• O=C1CNC(=S)N1 = 4.3
• O=C1CNC(=O)N1 = 7.5
• CC1NC(=O)NC1=O (centres unmarked) = 10.6

----------
Test system: hydantoinase
PROTOCOL NOTES: Metal ion requirements of purified hydantoinase
Type: biochemical, Ochrobactrum anthropi
Design: unit not given here
TEST CONTEXT: hydantoin as substrate, metal ion at 100 mM concentration
RECORDED METRIC: Specific activity

* [Mg+2] | 5.2
* [Zn+2] | 1.8
* [Mn+2] | 7.1
* [Ca+2] | 3.6
* [Fe+2] | 9.3
* O=C(O)CN(CCN(CC(=O)O)CC(=O)O)CC(=O)O [None (EDTA)] | 4.8
* [Ni+2] | 3.6
* [Co+2] | 3.6
* [Cu+2] | 1.2
* [Fe+3] | 3.8
